# Test system: 201T
# PROTOCOL DESCRIPTION: relative viability (nuclei count vs DMSO), 5 days (fraction); higher = more cells survive
# REPORTED CONDITIONS: first compound 0.08 µM
ASSAY ENDPOINT: relative viability
Simply state the number, no unit and no words.

Give relative viability only, for CCCCCCCCCCCC1=C(O)C(=O)C=C(O)C1=O [Embelin] + CS(=O)(=O)N1CCN(Cc2cc3nc(-c4cccc5[nH]ncc45)nc(N4CCOCC4)c3s2)CC1 [Pictilisib] (partner 1 µM) , using 201T data.
0.645

Tell me relative viability of CCCCCCCCCCCC1=C(O)C(=O)C=C(O)C1=O [Embelin] + Cc1nc(NC(=O)N2CCC[C@H]2C(N)=O)sc1-c1ccnc(C(C)(C)C(F)(F)F)c1 [Alpelisib] (partner 2 µM) when tested on 201T.
0.979

Give 201T relative viability for the following molecule: CCCCCCCCCCCC1=C(O)C(=O)C=C(O)C1=O [Embelin] + Cc1nc(Nc2ncc(C(=O)Nc3c(C)cccc3Cl)s2)cc(N2CCN(CCO)CC2)n1 [Dasatinib] (partner 0.075 µM)
0.562

Given CCCCCCCCCCCC1=C(O)C(=O)C=C(O)C1=O [Embelin] + CC(=O)c1c(C)c2cnc(Nc3ccc(N4CCNCC4)cn3)nc2n(C2CCCC2)c1=O [Palbociclib] (partner 0.5 µM) , report its relative viability on 201T.
0.375

----------
Below, each entry is listed with its recorded relative viability.
# System: EMC-BAC-2
# PROTOCOL DESCRIPTION: relative viability (nuclei count vs DMSO), 5 days (fraction); higher = more cells survive
# REPORTED CONDITIONS: first compound 0.3162 µM
Note: the reply should be a number with no unit written.

Would you please look over these solved cases?
{"MOLECULE": "CC(C)Oc1cc(Nc2nc(N[C@@H](C)c3ccc(F)cn3)ncc2Cl)n[nH]1 [AZ23] + C[C@@H](Oc1cc(-c2cnn(C3CCNCC3)c2)cnc1N)c1c(Cl)ccc(F)c1Cl [Crizotinib] (partner 1 µM)", "TARGET UNDER TEST": "EMC-BAC-2", "relative viability": 0.777}
{"MOLECULE": "CC(C)Oc1cc(Nc2nc(N[C@@H](C)c3ccc(F)cn3)ncc2Cl)n[nH]1 [AZ23] + Cc1nc(NC(=O)N2CCC[C@H]2C(N)=O)sc1-c1ccnc(C(C)(C)C(F)(F)F)c1 [Alpelisib] (partner 2 µM)", "TARGET UNDER TEST": "EMC-BAC-2", "relative viability": 0.754}
{"MOLECULE": "CC(C)Oc1cc(Nc2nc(N[C@@H](C)c3ccc(F)cn3)ncc2Cl)n[nH]1 [AZ23] + O=C(c1cc(Cc2n[nH]c(=O)c3ccccc23)ccc1F)N1CCN(C(=O)C2CC2)CC1 [Olaparib] (partner 8 µM)", "TARGET UNDER TEST": "EMC-BAC-2", "relative viability": 0.503}
{"MOLECULE": "CC(C)Oc1cc(Nc2nc(N[C@@H](C)c3ccc(F)cn3)ncc2Cl)n[nH]1 [AZ23] + Nc1nc2[nH]cc(CCc3ccc(C(=O)N[C@@H](CCC(=O)O)C(=O)O)cc3)c2c(=O)[nH]1 [Pemetrexed] (partner 0.2 µM)", "TARGET UNDER TEST": "EMC-BAC-2", "relative viability": 0.442}

Note: attention shifts to another entry.
Respond only with relative viability recorded for CC(C)Oc1cc(Nc2nc(N[C@@H](C)c3ccc(F)cn3)ncc2Cl)n[nH]1 [AZ23] + C[C@]1(O)C[C@@H](c2nc(-c3ccc4ccc(-c5ccccc5)nc4c3)c3c(N)nccn32)C1 [Linsitinib] (partner 1 µM)
0.884

----------
# System: CAL-12T
# PROTOCOL DESCRIPTION: relative viability (nuclei count vs DMSO), 5 days (fraction); higher = more cells survive
# REPORTED CONDITIONS: first compound 0.8 µM
ASSAY ENDPOINT: relative viability
Lab note: jot the number down without any unit.

{"COMPOUND": "CCCCCCCCCCCC1=C(O)C(=O)C=C(O)C1=O [Embelin] + CC(=O)Nc1cccc(-n2c(=O)n(C3CC3)c(=O)c3c(Nc4ccc(I)cc4F)n(C)c(=O)c(C)c32)c1 [Trametinib] (partner 0.02 µM)", "ASSAY ENDPOINT": "relative viability", "REPORTED RESULT": 0.386}
{"COMPOUND": "CCCCCCCCCCCC1=C(O)C(=O)C=C(O)C1=O [Embelin] + C[C@@H](Oc1cc(-c2cnn(C3CCNCC3)c2)cnc1N)c1c(Cl)ccc(F)c1Cl [Crizotinib] (partner 1 µM)", "ASSAY ENDPOINT": "relative viability", "REPORTED RESULT": 0.785}
{"COMPOUND": "CCCCCCCCCCCC1=C(O)C(=O)C=C(O)C1=O [Embelin] + Cc1nc(NC(=O)N2CCC[C@H]2C(N)=O)sc1-c1ccnc(C(C)(C)C(F)(F)F)c1 [Alpelisib] (partner 2 µM)", "ASSAY ENDPOINT": "relative viability", "REPORTED RESULT": 1.49}

In the following, a different compound is considered.
Input CCCCCCCCCCCC1=C(O)C(=O)C=C(O)C1=O [Embelin] + Cc1cc(Nc2cc(N3CCN(C)CC3)nc(Sc3ccc(NC(=O)C4CC4)cc3)n2)n[nH]1 [Tozasertib] (partner 0.1 µM) , output reported relative viability.
0.406

----------
# Tested on: HCC-15
# PROTOCOL DESCRIPTION: relative viability (nuclei count vs DMSO), 5 days (fraction); higher = more cells survive
# REPORTED CONDITIONS: first compound 0.8 µM
Quick list: relative viability per entry.
Write no unit; give the number alone.

Solved entries (count: 4):
{"MOLECULE": "CCCCCCCCCCCC1=C(O)C(=O)C=C(O)C1=O [Embelin] + CS(=O)(=O)N1CCN(Cc2cc3nc(-c4cccc5[nH]ncc45)nc(N4CCOCC4)c3s2)CC1 [Pictilisib] (partner 1 µM)", "REPORTED RESULT": 0.802}
{"MOLECULE": "CCCCCCCCCCCC1=C(O)C(=O)C=C(O)C1=O [Embelin] + COc1cc2c(Oc3ccc(NC(=O)C4(C(=O)Nc5ccc(F)cc5)CC4)cc3F)ccnc2cc1OCCCN1CCOCC1 [Foretinib] (partner 0.25 µM)", "REPORTED RESULT": 1.08}
{"MOLECULE": "CCCCCCCCCCCC1=C(O)C(=O)C=C(O)C1=O [Embelin] + Nc1nc2[nH]cc(CCc3ccc(C(=O)N[C@@H](CCC(=O)O)C(=O)O)cc3)c2c(=O)[nH]1 [Pemetrexed] (partner 0.2 µM)", "REPORTED RESULT": 0.24}
{"MOLECULE": "CCCCCCCCCCCC1=C(O)C(=O)C=C(O)C1=O [Embelin] + Cc1nc(Nc2ncc(C(=O)Nc3c(C)cccc3Cl)s2)cc(N2CCN(CCO)CC2)n1 [Dasatinib] (partner 0.075 µM)", "REPORTED RESULT": 0.628}

Consider the molecule CCCCCCCCCCCC1=C(O)C(=O)C=C(O)C1=O [Embelin] + CCNC(=O)c1noc(-c2cc(C(C)C)c(O)cc2O)c1-c1ccc(CN2CCOCC2)cc1 [Luminespib] (partner 0.01 µM) . State its measured relative viability.
0.299

----------
Reported relative viability values are given for each entry in this list.
# Test system: H3255
# PROTOCOL DESCRIPTION: relative viability (nuclei count vs DMSO), 5 days (fraction); higher = more cells survive
# REPORTED CONDITIONS: first compound 0.4 µM

For orientation, consider the following solved cases.
{"COMPOUND": "Clc1ccc(Nc2nnc(Cc3ccncc3)c3ccccc23)cc1 [Vatalanib] + CS(=O)(=O)CCNCc1ccc(-c2ccc3ncnc(Nc4ccc(OCc5cccc(F)c5)c(Cl)c4)c3c2)o1 [Lapatinib] (partner 2 µM)", "relative viability": 0.287}
{"COMPOUND": "COc1cc(N2CCC(C(N)=O)CC2)ccc1Nc1nc(N)c(Cl)c(Nc2ccccc2S(=O)(=O)C(C)C)n1 [HG-5-88-01] + Cc1nc(Nc2ncc(C(=O)Nc3c(C)cccc3Cl)s2)cc(N2CCN(CCO)CC2)n1 [Dasatinib] (partner 0.075 µM)", "relative viability": 0.355}

Give the reported relative viability for this compound. Clc1ccc(Nc2nnc(Cc3ccncc3)c3ccccc23)cc1 [Vatalanib] + COc1cc2c(Oc3ccc(NC(=O)C4(C(=O)Nc5ccc(F)cc5)CC4)cc3F)ccnc2cc1OCCCN1CCOCC1 [Foretinib] (partner 0.25 µM)
0.64

Using known records, supply relative viability for COc1cc(N2CCC(C(N)=O)CC2)ccc1Nc1nc(N)c(Cl)c(Nc2ccccc2S(=O)(=O)C(C)C)n1 [HG-5-88-01] + CC(=O)Nc1cccc(-n2c(=O)n(C3CC3)c(=O)c3c(Nc4ccc(I)cc4F)n(C)c(=O)c(C)c32)c1 [Trametinib] (partner 0.02 µM)
0.619
